// provenance: PubChem BioAssay AID1963977

System: 624824-186-R-J3-PDC multicell spheroids, viability;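 note: luminescent signal used as a stand-in for spheroid viability; spheroids exposed to agents for seven days before luminescence read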
EXPERIMENT_SUMMARY: Anticancer human tumor 624824-186-R-J3-PDC patient-derived colon adenocarcinoma cell line growth inhibition [PI3K]
MEASUREMENT_CONDITIONS: second compound 0.316 µM; first compound 0.316 µM; stronger effect = lower value
The label is met for viability, T/C below 40% and not met for viability, T/C equal to or exceeding 40%.

A selection of reference data follows.
[[record]]
molecule = "Cn1nccc1Nc1nccc(-c2ccn(C(CO)c3ccc(Cl)c(F)c3)c(=O)c2)n1 (stereo not given) + COc1c(OCCCN2CCOCC2)ccc2c3n(c(=NC(=O)c4cnc(N)nc4)nc12)CCN3"
classification = "met"

[[record]]
molecule = "CCN1CCN(Cc2ccc(Nc3ncc(F)c(-c4cc(F)c5nc(C)n(C(C)C)c5c4)n3)nc2)CC1 + COc1c(OCCCN2CCOCC2)ccc2c3n(c(=NC(=O)c4cnc(N)nc4)nc12)CCN3"
classification = "not met"

[[record]]
molecule = "CCCS(=O)(=O)Nc1ccc(F)c(C(=O)c2c[nH]c3ncc(-c4ccc(Cl)cc4)cc23)c1F + CC(Nc1ccc2c(c1)OCCn1cc(N3C(=O)OCC3C(F)F)nc1-2)C(N)=O"
classification = "not met"

[[record]]
molecule = "CC1(C)CCC(Nc2ncc(C(F)(F)F)c(-c3c[nH]c4c(P(C)(C)=O)c(C#N)ccc34)n2)CN1 (stereo not given) + CC(Nc1ncnc2nc[nH]c12)c1cc2cccc(Cl)c2c(=O)n1-c1ccccc1"
classification = "not met"


Now for a further molecule.
Just wondering, is viability, T/C of CC(Cn1ccc(-c2ccc(C#N)c(Cl)c2)n1)NC(=O)c1cc(C(C)O)[nH]n1 (stereo not given) + CC(Nc1ccc2c(c1)OCCn1cc(N3C(=O)OCC3C(F)F)nc1-2)C(N)=O below 40%?
not met
